- Tested on: L1210 leukemia ip in BDF1 mice, survival T/C
- Assay name: NCI In Vivo Anticancer Drug Screen. Data for tumor model L1210 Leukemia (intraperitoneal) in B6D2F1 (BDF1) mice
- Condition context: endpoint: mean survival time; dose: 400.0 mg/kg/injection; schedule: Q01DX001 (ip); vehicle: saline with Tween-80; higher = longer survival
Toxic doses and inconclusive results are not listed.
Measurement kind: T/C

Look over these answered cases.
CCOC(=O)c1ccc(NC(=S)NC(=O)C(C)Oc2ccccc2)cc1 (configuration not stated) | 108 % of control
O=c1ccc2cc3oc(=O)ccc3cc2o1 | 90 % of control
CCOC(=O)c1ccc(NCc2nnc3nc(N)nc(SCc4ccccc4)c3n2)cc1 | 92 % of control
CC1(C)N=C(N)N=C(N)N1c1ccc(CCc2ccc(Cl)cc2S(=O)(=O)F)c(Cl)c1 | 97 % of control

Fill in the blank: the reported T/C of `CC(C)c1ccc2c(c1)CC[C@H]1[C@](C)(C(=O)O)CCC[C@]21C` is ____.
105 % of control

Please answer likewise for `COc1nccnn1`
101 % of control

Now try `CNC(=O)Oc1cccc(NC(=O)OCC#CCCl)c1` .
90 % of control

Then what about the compound `CC(C)CCOC(=O)c1ccccc1OC(=O)Nc1ccc(Cl)cc1[N+](=O)[O-]` ?
88 % of control

Next compound up: `NC(=S)N/N=C/c1[nH]c(=O)[nH]c(=O)c1Br`
103 % of control

// repeat for `c1ccc2c3c(ccc2c1)OCCCCCOc1ccc2ccccc2c1-c1c(ccc2ccccc12)OCCOCCOc1ccc2ccccc2c1-3` and report
98 % of control

`CNC(=O)/C(=C\c1ccccc1)NC(C)=O` ?
100 % of control

Follow-up item: `CCCn1c(=O)cc(/C=N/Nc2ccc([N+](=O)[O-])cc2[N+](=O)[O-])c2ccccc21`
90 % of control

====

Listed compounds paired with reported T/C
- Tested on: L1210 leukemia ip in BDF1 mice, survival T/C
- Assay name: NCI In Vivo Anticancer Drug Screen. Data for tumor model L1210 Leukemia (intraperitoneal) in B6D2F1 (BDF1) mice
- Condition context: endpoint: mean survival time; dose: 300.0 mg/kg/injection; schedule: Q01DX001 (ip); vehicle: saline; higher = longer survival
Inconclusive results and toxic doses are left out.

C/C(=C\c1ccc2ccccc2c1)[N+](=O)[O-] | 105 % of control
CNCc1ccccc1Cc1ccccc1 | 95 % of control
CCCCN(CCCC)CC(O)c1cc(-c2ccccc2)nc2c(N)cccc12 (stereo not given) | 96 % of control
COC(=O)c1n[nH]c(C)c1N=NN1CCOCC1 | 105 % of control

Turning now to a further compound:
// T/C lookup, key: Cc1cc(C)c(C(O)C(=O)O)c(C)c1 (stereo not given)
101 % of control

====

- System: L1210 leukemia ip in BDF1 mice, survival T/C
- Assay name: NCI In Vivo Anticancer Drug Screen. Data for tumor model L1210 Leukemia (intraperitoneal) in B6D2F1 (BDF1) mice
- Condition context: endpoint: mean survival time; dose: 25.0 mg/kg/injection; schedule: Q04DX002 (ip); vehicle: Klucel (hydroxypropylcellulose) (HPC); higher = longer survival
Inconclusive results and toxic doses are left out.
Recorded T/C values for a group of compounds are listed next.

Example compounds with recorded T/C:
C=CCc1ccc(OCCOCCN(C/C=C(\C)CCC=C(C)C)C/C=C(\C)CCC=C(C)C)c(OC)c1 | 108 % of control
CC(C)CC(=O)NC(C)C(=O)NC(Cc1ccccc1)C(=O)CCl (stereo not drawn) | 98 % of control

Can you look up the measured T/C of `N#Cc1ccc(N=C(N)N[N+](=O)[O-])cc1` for me?
96 % of control

Also check `CCCCCCP(=O)(CCCC)CCCC`
94 % of control

What would you report for `Nc1ccc(Sc2ccc(N)cc2)cc1` ?
116 % of control

Another compound: CN(CCO)CC1C(c2ccccc2)C1c1ccccc1 (stereo not drawn)
94 % of control

Repeat with `Cc1cc[c]([Hg][I])cc1`
87 % of control

Please do the same for `Cc1nonc1-c1nc(SCC(=O)NN)n[nH]1` as well.
102 % of control
